Tested on: LNCaP
Experiment: Cell cycle arrest in human LNCAP cells assessed as decrease in S phase cells at 5 uM after 24 hrs by PI-based flow cytometric analysis relative to control
Assay type: functional
Active and inactive are the calls of the source. The rule behind the calls is not given here.
quantity.name: Activity

O=C1O/C(=C/Br)CCC1c1cccc2ccccc12 (racemic)    Active
O=C1O/C(=C/Br)CCC1c1ccccc1 (racemic)    Active
C#CCN1C/C(=C\Br)OC(=O)[C@H]1c1ccccc1    Active
C#CCN1C/C(=C\Br)OC(=O)[C@@H]1c1ccccc1    Active

====

Tested on: PC-3
Assay: Antineoplastic activity against human PC3 cells after 72 hrs by MTT assay
Assay type: functional, cell-based
Conditions: PC-3, 72 h
Label met when IC50 is strictly below 20 µM; at or above that, label not met.

O=C1CCC/C(=C\I)O1    met
C#CCN1CC(=O)O/C(=C/Br)C1    met
C#CCN1C/C(=C\Br)OC(=O)[C@@H]1Cc1ccccc1    not met
C#CCN1C/C(=C\Br)OC(=O)[C@@H]1c1ccccc1    met
O=C1CCC/C(=C\Br)O1    met

Exercise: Say whether its IC50 is strictly beneath 20 µM. Entry: C#CCN1C/C(=C\I)OC(=O)[C@@H]1c1ccccc1
Key: not met

Exercise: Check if IC50 falls below 20 µM for C#CCN1C/C(=C\Br)OC(=O)[C@H]1c1ccccc1 .
Key: met
